- experimental.details: Mouse Activity and Screen Test Procedure (MAST): screen test failure (ST)
- condition.info: lowest dose at which an A rating is achieved, screen test; i.p., mouse
measure.name: MAST ST LAD

compound | reported.measurement
COC(=O)C(CNc1ncnc2c1ncn2[C@@H]1O[C@H](CO)[C@@H](O)[C@H]1O)(c1ccccc1)c1ccccc1 | > 30 mg/kg
Nc1nc(NCC(c2ccc(Cl)cc2)c2ccc(Cl)cc2)c2ncn([C@@H]3O[C@H](CO)[C@@H](O)[C@H]3O)c2n1 | > 30 mg/kg
Cc1cccc(C(CNc2ncnc3c2ncn3[C@@H]2O[C@H](CO)[C@@H](O)[C@H]2O)c2ccccc2)c1 (stereo partly shown) | 100 mg/kg
Nc1nc(NCC(c2ccccc2)c2ccc(Cl)cc2)c2ncn([C@@H]3O[C@H](CO)[C@@H](O)[C@H]3O)c2n1 (stereo partly shown) | > 100 mg/kg
OC[C@H]1O[C@@H](n2cnc3c(NCC(c4ccc(F)cc4)c4ccc(F)cc4)ncnc32)[C@H](O)[C@@H]1O | > 100 mg/kg
OC[C@H]1O[C@@H](n2cnc3c(NCCCCC(c4ccccc4)c4ccccc4)ncnc32)[C@H](O)[C@@H]1O | > 100 mg/kg
O=C(OC[C@H]1O[C@@H](n2cnc3c(NCC(c4ccccc4)c4ccccc4)ncnc32)[C@H](OC(=O)c2ccccc2)[C@@H]1OC(=O)c1ccccc1)c1ccccc1 | > 100 mg/kg
Nc1nc(NCC(O)(c2ccccc2)c2ccccc2)c2ncn([C@@H]3O[C@H](CO)[C@@H](O)[C@H]3O)c2n1 | > 100 mg/kg
Nc1nc(NCC(c2ccccc2)c2ccc(F)cc2)c2ncn([C@@H]3O[C@H](CO)[C@@H](O)[C@H]3O)c2n1 (stereo partly shown) | > 100 mg/kg
O=P(O)(O)OC[C@H]1O[C@@H](n2cnc3c(NCC(c4ccccc4)c4ccccc4)ncnc32)[C@H](O)[C@@H]1O | > 30 mg/kg
OC[C@H]1O[C@@H](n2cnc3c(NCC(O)(c4ccccc4)c4ccccc4)ncnc32)[C@H](O)[C@@H]1O | 100 mg/kg
OC[C@H]1O[C@@H](n2cnc3c(NCC(c4ccc(Cl)cc4)c4ccc(Cl)cc4)ncnc32)[C@H](O)[C@@H]1O | > 100 mg/kg
CC(=O)OC[C@H]1O[C@@H](n2cnc3c(NCC(c4ccccc4)c4ccccc4)ncnc32)[C@H](OC(C)=O)[C@@H]1OC(C)=O | > 100 mg/kg

###

- experimental.details: Mouse Activity and Screen Test Procedure (MAST): screen test failure (ST)
- condition.info: lowest dose at which an A rating is achieved, screen test; i.p., mouse
Reported MAST ST LAD values are given for each entry in this list.

compound | MAST ST LAD
CC(CNc1nc(N)nc2c1ncn2[C@@H]1O[C@H](CO)[C@@H](O)[C@H]1O)(c1ccccc1)c1ccccc1 | > 100 mg/kg
OC[C@H]1O[C@@H](n2cnc3c(NC(c4ccccc4)c4ccccc4)ncnc32)[C@H](O)[C@@H]1O | > 100 mg/kg
COc1ccc(C(CNc2ncnc3c2ncn3[C@@H]2O[C@H](CO)[C@@H](O)[C@H]2O)c2ccccc2)cc1 (stereo partly drawn) | 30 mg/kg

###

- system: adenosine A1 receptor (Rattus norvegicus)
- Construct: Whole brain minus cerebellum and brainstem from male Long Evans rats
- Sequence (P25099 1-326): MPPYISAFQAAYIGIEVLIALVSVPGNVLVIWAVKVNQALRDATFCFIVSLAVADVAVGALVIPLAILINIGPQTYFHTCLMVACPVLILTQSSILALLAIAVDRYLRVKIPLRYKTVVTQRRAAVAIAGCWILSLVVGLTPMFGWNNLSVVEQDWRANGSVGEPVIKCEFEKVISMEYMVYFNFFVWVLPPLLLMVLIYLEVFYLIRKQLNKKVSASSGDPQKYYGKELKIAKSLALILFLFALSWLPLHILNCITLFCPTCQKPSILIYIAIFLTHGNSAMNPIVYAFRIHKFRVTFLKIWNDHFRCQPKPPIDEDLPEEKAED
- experimental.details: Adenosine Receptor Binding--A1 Receptor Affinity (RBA1), [3H]-CHA
pIC50: −log10 of the molar value.

smiles.data | system | pIC50
O=[N+]([O-])c1ccc(C(CNc2ncnc3c2ncn3[C@@H]2O[C@H](CO)[C@@H](O)[C@H]2O)c2ccc([N+](=O)[O-])cc2)cc1 | adenosine A1 receptor (Rattus norvegicus) | 6.64
